Catalogue of compounds with associated Toxicity Assay Z-score
# Test system: Clone V cells
# conditionContext: human, 16 h, 30 µM
Where a name gives a salt, the structure may show the parent alone.
Output spec: single numeric token, no unit.

Past entries and their recorded results:
- COc1cccc2c1C(=O)c1c(O)c3c(c(O)c1C2=O)C[C@@](O)(C(=O)CO)C[C@@H]3O[C@H]1C[C@H](N)[C@H](O)[C@H](C)O1 [Doxorubicin hydrochloride]: -0.82
- c1cc(CN2CCCNCCNCCCNCC2)ccc1CN1CCCNCCNCCCNCC1: -1.00
- CC1(C)CCC(c2ccc(Cl)cc2)=C(CN2CCN(c3ccc(C(=O)NS(=O)(=O)c4ccc(N[C@H](CCN5CCOCC5)CSc5ccccc5)c(S(=O)(=O)C(F)(F)F)c4)cc3)CC2)C1: -0.99

Toxicity Assay Z-score measured on Nc1nc(Cl)nc2c1ncn2[C@@H]1O[C@H](CO)[C@@H](O)[C@@H]1F = -0.82

* * *

Catalogue of molecules with associated Toxicity Assay % Fluor
# System: Clone V cells
# testDetails: CellTiter Blue (CTB) cell viability counter-screen
# conditionContext: CC_NCI screening; CTB cell viability fluorescence; normalized to on-plate 0.3% DMSO controls

Past entries and their recorded results:
- Nc1nc(Cl)nc2c1ncn2[C@H]1C[C@H](O)[C@@H](CO)O1: 83.86%
- CNC(=O)c1ccccc1Sc1ccc2c(/C=C/c3ccccn3)n[nH]c2c1: 91.58%
- COC1=CC(c2cc3ccccc3[nH]2)=N/C1=C\c1[nH]c(C)cc1C: 87.39%

Per the reported Clone V cells data, CO[C@H]1C[C@@H]2CC[C@@H](C)[C@@](O)(O2)C(=O)C(=O)N2CCCC[C@H]2C(=O)O[C@H]([C@H](C)C[C@@H]2CC[C@@H](OCCO)[C@H](OC)C2)CC(=O)[C@H](C)/C=C(\C)[C@@H](O)[C@@H](OC)C(=O)[C@H](C)C[C@H](C)/C=C/C=C/C=C/1C has Toxicity Assay % Fluor of 91.22%

Per the reported Clone V cells data, COc1cc2c(Nc3ccc(Br)cc3F)ncnc2cc1OCC1CCN(C)CC1 has Toxicity Assay % Fluor of 97.46%

Per the reported Clone V cells data, O=C(NOCC1CC1)c1ccc(F)c(F)c1Nc1ccc(I)cc1Cl [CI 1040, reference compound] has Toxicity Assay % Fluor of 85.93%

Per the reported Clone V cells data, Cn1nnc2c(C(N)=O)ncn2c1=O [Temozolomide] has Toxicity Assay % Fluor of 84.35%

Per the reported Clone V cells data, COc1cc(Nc2c(C#N)cnc3cc(OCCCN4CCN(C)CC4)c(OC)cc23)c(Cl)cc1Cl has Toxicity Assay % Fluor of 88.31%

* * *

# testedTarget: full-length P. pyralis luciferase (Photinus pyralis, UniProt P08659, K549A/L550V/N119G/N50D/S548I)
# Sequence (P08659 whole entry N50D/N119G/S548I/K549A/L550V, looked up): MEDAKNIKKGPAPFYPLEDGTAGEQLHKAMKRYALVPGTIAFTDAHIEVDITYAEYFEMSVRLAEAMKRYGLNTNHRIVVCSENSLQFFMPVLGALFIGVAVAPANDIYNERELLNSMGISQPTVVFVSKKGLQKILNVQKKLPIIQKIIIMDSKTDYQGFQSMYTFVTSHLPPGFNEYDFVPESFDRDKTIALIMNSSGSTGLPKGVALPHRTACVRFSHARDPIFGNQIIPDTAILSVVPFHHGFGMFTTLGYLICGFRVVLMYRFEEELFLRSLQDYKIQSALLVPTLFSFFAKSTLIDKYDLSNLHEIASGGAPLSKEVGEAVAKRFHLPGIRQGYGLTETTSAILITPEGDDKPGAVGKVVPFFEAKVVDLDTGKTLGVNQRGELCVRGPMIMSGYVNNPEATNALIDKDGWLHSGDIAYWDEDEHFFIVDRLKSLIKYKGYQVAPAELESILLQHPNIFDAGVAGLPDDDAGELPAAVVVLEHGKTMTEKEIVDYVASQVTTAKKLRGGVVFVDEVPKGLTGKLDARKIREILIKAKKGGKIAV
# Format: cell-based
# conditionContext: CC_NCI screening; normalized to on-plate 0.3% DMSO controls
Catalogue of compounds with associated Luciferase Assay % Lum (full-length luciferase counter-screen)
Note: unit % is implicit; provide only the numeric part.

* CC(C)[C@H](NS(=O)(=O)c1ccc(-c2ccc(Br)cc2)cc1)C(=O)O [PD 166793] | 99.99
* NS(=O)(=O)c1nn2cc(-c3ccccc3)nc2s1 [AEG 3482] | 93.96
* NC(=O)c1ncn([C@@H]2O[C@H](CO)[C@@H](O)[C@H]2O)c1N [AICAR] | 107.04
* O=NN(CCCl)C(=O)NCCCl [Carmustine] | 102.90
* c1cc(-c2cnn3cc(-c4ccc(OCCN5CCCCC5)cc4)cnc23)ccn1 [COMPOUND C] | 104.57
* O=c1cc(N2CCOCC2)nc2c3ccccc3ccn12 [COMPOUND 401] | 93.50

Luciferase Assay % Lum (full-length luciferase counter-screen) measured on CO[C@H]1C[C@@H]2CC[C@@H](C)[C@@](O)(O2)C(=O)C(=O)N2CCCC[C@H]2C(=O)O[C@H]([C@H](C)C[C@@H]2CC[C@@H](O)[C@H](OC)C2)CC(=O)[C@H](C)/C=C(\C)[C@@H](O)[C@@H](OC)C(=O)[C@H](C)C[C@H](C)/C=C/C=C/C=C/1C [Sirolimus] = 80.58
